target: muscarinic receptors; experiment: Radio ligand binding: displacement of the muscarinic agonist 3H-OXO-M from rat cerebral cortex membranes; design: species or system Hooded Lister rats; conditions: displacement of agonist 3H-OXO-M (2 nM), 2 mM magnesium chloride, 37° C., 30 min
Structures can show the parent of a compound that is named as a salt.
log10(IC50) overview
MEASUREMENT LABEL: log10(IC50) (log10 of the value in nM)

COMPOUND	log10(IC50)
COC(=O)C12CCCN(CC1)C2 (stereo not shown) [Compound E3, oxalate salt]	1.15
Cc1nnc(C23CCN(CC2)C3)o1 [Compound E17, oxalate salt]	2.36
c1nnc(C23CCCN(CC2)C3)o1 (stereo not shown) [Compound E14, oxalate salt]	2.20
COC(=O)C12CCN(CC1)C2 [Compound E6, oxalate salt]	1.62
Cc1nnc(C23CCCN(CC2)C3)o1 (stereo not shown) [Compound E13, oxalate salt]	1.59
c1coc(C23CCCN(CC2)C3)n1 (stereo not shown) [Compound E12, oxalate salt]	2.16
Cc1noc(C23CCCN(CC2)C3)n1 (stereo not shown) [Compound E10, oxalate salt]	1.23
c1coc(C23CCCN(CC2)C3)c1 (stereo not shown) [Compound E21, hydrochloride salt]	1.53
Cc1noc(C23CCN(CC2)C3)n1 [Compound E11, oxalate salt]	1.97
c1cc(C23CCCN(CC2)C3)on1 (stereo not shown) [Compound E15, oxalate salt]	2.11

====

biological target: muscarinic receptors; type: binding, Hooded Lister rats; conditions: displacement of antagonist 3H-QNB (0.27 nM), rat cerebral cortex membranes, 37° C., 30 min
Structures can show the parent of a compound that is named as a salt.

COMPOUND	IC50
c1coc(C23CCCN(CC2)C3)c1 (stereo not shown) [Compound E21, hydrochloride salt]	3.8 µM
COC(=O)C12CCN(CC1)C2 [Compound E6, oxalate salt]	29 µM
COC(=O)C12CCCN(CC1)C2 (stereo not shown) [Compound E3, oxalate salt]	6.7 µM
c1cc(C23CCCN(CC2)C3)on1 (stereo not shown) [Compound E15, oxalate salt]	7.8 µM
Cc1nnc(C23CCCN(CC2)C3)o1 (stereo not shown) [Compound E13, oxalate salt]	9.4 µM
Cc1nnc(C23CCN(CC2)C3)o1 [Compound E17, oxalate salt]	48 µM
c1coc(C23CCCN(CC2)C3)n1 (stereo not shown) [Compound E12, oxalate salt]	15 µM
Cc1noc(C23CCN(CC2)C3)n1 [Compound E11, oxalate salt]	14 µM
c1nnc(C23CCCN(CC2)C3)o1 (stereo not shown) [Compound E14, oxalate salt]	9 µM
Cc1noc(C23CCCN(CC2)C3)n1 (stereo not shown) [Compound E10, oxalate salt]	4 µM
